Overview of reported IC50 of pseudovirus infection (luciferase) across a group of binders:
MEASUREMENT_TARGET: spike protein of SARS-CoV-2 α strain on pseudovirus (SARS-CoV-2 (α strain))
EXPERIMENTAL_DETAILS: cell-based or functional assay
Answer format: numeric, µg/mL implied, no suffix.

Please review the entries below; each comes with its answer.
{"BINDER": "Ab496 (antibody, V domains shown) VH: EVQLVQSGPEVKKPGTSVKVSCKASGFIFTNSAVQWVRQARGQRLEWIGWIVVGSGNPNYAQKFQERVTITRDRSTSTAYMELSSLTSEDTAVYYCAAFPYYYDNSGSGPWGQGTLVTVSS VL: DIQLTQSPSSLSASVGDRVTITCQASQDIRNNLNWYQQIPGKAPKLLIYDASNLETGVPSRFSGSASGTDFTFTISSLQPEDVATYYCQQYANLPPFTFGPGTKVDIK", "NUMBER": 0.0169}
{"BINDER": "Ab765 (antibody, V domains shown) VH: QVQLVESGGGVVQPGRSLRLSCAASGFTFSDYAIHWVRQAPGRGLEPVALISYDGNNKYYADSVKGRFTISRDNSKNVLYLQMNSLRADDTAVYYCARDAEGGWVAALDYWGQGTLVTVSS VL: QSALTQPRSVSGSPGQSVTISCTGTSSDVGGYNYVSWYQHHPGKAPKVMIYEVSKRPSGVPDRFSGSKSGTTASLTISGLQAEDEADYYCCSYAGTYPYVFGTGTKVTVL", "NUMBER": 0.0166}

Pending binder:
Q. Which measured IC50 of pseudovirus infection (luciferase) value corresponds to Ab830 (antibody, V domains shown) VH: QVQLVQSGAEVKKPGSSVKVSCKTSGGTFTNYTISWVRQAPGQGLEWMGRIIPIFDIVNYAQKFQGRVTITADKSTSTTYMELSSLRSEDTAVYYCARDGVLYDTSGYLYDAFDIWGQGTMVTVSS VL: DIQMTQSPSSLSASVGDRVTITCRASQGINNYLAWFQQKPGKAPKSLIYAASSLQSGVPPKFSGSGSGTDFTLTISSLQPEDFATYYCLHYNSYPWTFGQGTKVEIK ?
A. 0.0374
